// provenance: patent US11512053B2

- Study system: full-length human PRMT8 isoform 1 (Homo sapiens, UniProt Q9NR22)
- Sequence (Q9NR22 whole entry, canonical isoform): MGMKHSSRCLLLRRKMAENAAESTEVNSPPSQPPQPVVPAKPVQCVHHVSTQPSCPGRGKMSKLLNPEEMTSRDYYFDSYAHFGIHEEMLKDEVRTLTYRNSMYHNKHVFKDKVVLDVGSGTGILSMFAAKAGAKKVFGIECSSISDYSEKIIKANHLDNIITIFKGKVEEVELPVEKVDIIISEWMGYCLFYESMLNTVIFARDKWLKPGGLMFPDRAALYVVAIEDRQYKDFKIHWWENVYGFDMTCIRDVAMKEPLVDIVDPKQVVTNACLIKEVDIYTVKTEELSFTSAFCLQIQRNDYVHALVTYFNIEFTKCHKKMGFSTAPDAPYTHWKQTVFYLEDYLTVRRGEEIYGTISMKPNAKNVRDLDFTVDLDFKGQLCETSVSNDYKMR
- Protocol notes: PRMT8 Biochemical Assay (3H-SAM Flashplate, peptide substrate)
- Condition info: read-out: Biochemical IC50 PRMT8
Attribute: IC50

CNCCN(C)Cc1c[nH]nc1[C@H]1CCC(C)(C)[C@@H](C(=O)NCCOC)C1 [Compound 268] : 0.101 to 1 µM
CNCCN(C)Cc1c[nH]nc1[C@H]1CC[C@H](C(=O)NCCOc2ccccc2)CC1 [Compound 211] : < 0.1 µM
CNCCN(C)Cc1c[nH]nc1[C@H]1CC[C@H](N(CCCOC)C(=O)CC(C)C)CC1 [Compound 241] : < 0.1 µM
CNCCN(C)Cc1c[nH]nc1C1CCC(Oc2ccccc2)CC1 (centres unmarked) [Compound 67] : < 0.1 µM
CNCCN(C)Cc1c[nH]nc1[C@H]1CC[C@H](OCCOc2ccccc2)CC1 [Compound 187] : 0.101 to 1 µM

Memo: CNCCN(C)Cc1c[nH]nc1[C@H]1CC[C@@]2(CCN(CC(C)C)C2=O)CC1 [Compound 129] , reported IC50: < 0.1 µM

Memo: CNCCN(C)Cc1c[nH]nc1[C@H]1CC[C@]2(CCN(Cc3cc(F)cc(F)c3)C2=O)CC1 [Compound 197] , reported IC50: < 0.1 µM

Memo: CNCCN(C)Cc1n[nH]cc1[C@H]1CC[C@H](C(=O)NCCC(C)C)CC1 [Compound 203] , reported IC50: < 0.1 µM

###

- Study system: full-length human PRMT6 (Flag- and His-tagged) (Homo sapiens)
- Sequence (Q96LA8 with tags, fused parts or gaps): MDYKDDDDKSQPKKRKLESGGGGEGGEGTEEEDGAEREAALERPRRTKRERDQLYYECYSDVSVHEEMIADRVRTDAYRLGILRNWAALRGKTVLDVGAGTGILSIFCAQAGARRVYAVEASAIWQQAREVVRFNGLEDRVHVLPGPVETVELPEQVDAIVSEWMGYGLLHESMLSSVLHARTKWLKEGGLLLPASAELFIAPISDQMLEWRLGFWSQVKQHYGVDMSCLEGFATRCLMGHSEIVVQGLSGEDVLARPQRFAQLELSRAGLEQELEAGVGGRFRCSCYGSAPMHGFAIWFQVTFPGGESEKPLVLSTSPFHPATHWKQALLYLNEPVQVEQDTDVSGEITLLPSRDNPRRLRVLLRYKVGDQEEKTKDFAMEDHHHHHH
- Protocol notes: PRMT6 Biochemical Assay (3H-SAM Flashplate, peptide substrate)
- Condition info: single experiment or average of multiple experiments; read-out: Biochemical IC50 PRMT6
Structures can show the parent of a compound that is named as a salt.
Attribute: pIC50
// returns pIC50 (minus log10 of molar concentration), number only

Sample records with pIC50:
CNCCN(C)Cc1c[nH]nc1C1CCC2(CC1)OC(C)CC(C)O2 (centres unmarked) [Compound 121] : 7.01
CCN(C(=O)CCOc1ccccc1)[C@H]1CC[C@@H](c2n[nH]cc2CN(C)CCNC)CC1 [Compound 224] : 7.74
CN(CCN)Cc1c[nH]nc1C1CCCC1 [Compound 31] : 7.52
CNCCN(C)Cc1cn(C)nc1[C@H]1CC[C@]2(CC1)CC(C)(C)CO2 [Compound 206, hydrochloride] : 6.68

Continue with the next compound.
Memo: CNCCN(C)Cc1c[nH]nc1C1CCNCC1 [Compound 42] , reported pIC50: 7.70

###

- Study system: full-length human PRMT8 isoform 1 (Homo sapiens)
- Protocol notes: PRMT8 Biochemical Assay (3H-SAM Flashplate, peptide substrate)
- Condition info: single experiment or average of multiple experiments; read-out: Biochemical IC50 PRMT8
Attribute: IC50
Could you give me the number in nM? Just the number is fine.

Sample records with IC50:
CNCCN(C)Cc1c[nH]nc1C1CC(C)(C)OC(C)(C)C1 [Compound 59] : 48.4
CNCCN(C)Cc1c[nH]nc1C1CCC(C)(C)C(C(=O)NCCCOC)C1 (stereo not drawn) [Compound 93] : 88.1
CNCCN(C)Cc1c[nH]nc1C1CCN(C)CC1 [Compound 41] : 350
CNCCN(C)Cc1c[nH]nc1C1CCC(C)(C)C(O)C1 (stereo not drawn) [Compound 185] : 24.4
COc1cc(/C=C/c2n[nH]cc2CN(C)CCN)cc(OC)c1 [Compound 11] : 250
CNCCN(C)Cc1c[nH]nc1[C@H]1CC[C@H](N(CCOC)C(=O)CC(C)C)CC1 [Compound 252] : 51.5

Memo: CN(CCN)Cc1c[nH]nc1/C=C/c1ccc(C(F)(F)F)cc1 [Compound 18] , reported IC50: 40

Memo: CNCCN(C)Cc1c[nH]nc1C1CCC2(CC1)CC(C)OC(C)C2 (stereo not drawn) [Compound 63] , reported IC50: 12

Memo: CNCCN(C)Cc1c[nH]nc1[C@H]1CC[C@@H](N(CCCOC)C(=O)CC(C)C)CC1 [Compound 242] , reported IC50: 83.7

Memo: CNCCN(C)Cc1c[nH]nc1C1CCC2(CC1)CCC(F)(F)CC2 [Compound 130] , reported IC50: 4.5

Memo: CNCCN(C)Cc1c[nH]nc1C1CCC2(CC1)NC(=O)NC2=O (stereo not drawn) [Compound 175] , reported IC50: 29.6

Memo: CNCCN(C)Cc1n[nH]cc1[C@H]1CC[C@H](C(=O)NCCC(C)C)CC1 [Compound 203] , reported IC50: 84.4

Memo: CN(CCN)Cc1c[nH]nc1/C=C/Cc1ccccc1 [Compound 24] , reported IC50: 300

Memo: CNCCN(C)Cc1c[nH]nc1[C@H]1CC[C@H](C(=O)N(C)CC(C)C)CC1 [Compound 226] , reported IC50: 57.6

Memo: CNCCN(C)Cc1c[nH]nc1[C@H]1CC[C@H](N(CC(C)C)C(=O)CCCOC)CC1 [Compound 249] , reported IC50: 84.5

Memo: CNCCN(C)Cc1c[nH]nc1C1CCN(C(=O)C(C)C)CC1 [Compound 34] , reported IC50: 440

Memo: CNCCN(C)Cc1c[nH]nc1[C@H]1CC[C@@]2(CCN(Cc3ccccc3)C2=O)CC1 [Compound 127] , reported IC50: 47.8

Memo: CNCCN(C)Cc1c[nH]nc1C1CCC(C)(C)[C@@H](C(=O)NCCC(C)C)C1 (stereo partly drawn) [Compound 263] , reported IC50: 35.1

###

- Study system: human CARM1 (PRMT4) (Flag- and His-tagged) (Homo sapiens, UniProt Q86X55)
- Construct: Flag-CARM1-His; made in house; host or cells: HEK 293F cells (BacMam baculovirus)
- Sequence (Q86X55 1-585 isoform Q86X55-1): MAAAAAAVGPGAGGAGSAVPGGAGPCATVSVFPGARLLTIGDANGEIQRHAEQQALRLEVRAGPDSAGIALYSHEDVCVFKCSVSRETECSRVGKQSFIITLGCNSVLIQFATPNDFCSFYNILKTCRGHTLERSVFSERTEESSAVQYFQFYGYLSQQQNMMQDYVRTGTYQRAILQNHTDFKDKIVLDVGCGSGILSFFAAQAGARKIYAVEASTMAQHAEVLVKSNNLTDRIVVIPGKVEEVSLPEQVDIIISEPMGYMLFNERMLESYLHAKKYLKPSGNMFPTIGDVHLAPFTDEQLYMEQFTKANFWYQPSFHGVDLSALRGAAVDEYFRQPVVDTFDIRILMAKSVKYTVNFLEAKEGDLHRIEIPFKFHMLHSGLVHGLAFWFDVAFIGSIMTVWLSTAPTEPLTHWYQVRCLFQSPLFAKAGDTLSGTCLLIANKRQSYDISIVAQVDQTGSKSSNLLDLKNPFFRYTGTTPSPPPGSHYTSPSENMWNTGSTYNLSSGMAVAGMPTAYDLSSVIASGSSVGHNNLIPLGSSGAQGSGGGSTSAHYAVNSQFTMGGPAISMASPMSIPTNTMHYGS
- Protocol notes: CARM1 Biochemical Assay (3H-SAM Flashplate, peptide substrate)
- Condition info: single experiment or average of multiple experiments
Attribute: IC50
Could you give me the number in nM? Just the number is fine.

Sample records with IC50:
CNCCN(C)Cc1c[nH]nc1C#Cc1ccc(F)cc1 : 500
Cc1ccc(/C=C/c2n[nH]cc2CN(C)CCN)cc1 : 370
CNCCN(C)Cc1c[nH]nc1C#Cc1ccc(C(C)(C)C)cc1 : 110
CN(CCN)Cc1c[nH]nc1/C=C/c1cccc(C(F)(F)F)c1 : 110
COC/C=C/c1n[nH]cc1CN(C)CCN : 3780

Memo: `COc1cc(/C=C/c2n[nH]cc2CN(C)CCN)cc(OC)c1` , reported IC50: 50

Memo: `CN(CCN)Cc1c[nH]nc1/C=C/c1cccc(F)c1` , reported IC50: 250

Memo: `CNCCN(C)Cc1c[nH]nc1C#Cc1ccccc1` , reported IC50: 1230

Memo: `CN(CCN)Cc1c[nH]nc1/C=C/c1ccc(F)cc1F` , reported IC50: 200

###

- Study system: full-length human PRMT3 isoform 1 (GST-tagged) (Homo sapiens, UniProt O60678)
- Construct: GST-tagged PRMT3; made in house; host or cells: E. coli BL21(DE3) Gold
- Sequence (O60678 with tags, fused parts or gaps): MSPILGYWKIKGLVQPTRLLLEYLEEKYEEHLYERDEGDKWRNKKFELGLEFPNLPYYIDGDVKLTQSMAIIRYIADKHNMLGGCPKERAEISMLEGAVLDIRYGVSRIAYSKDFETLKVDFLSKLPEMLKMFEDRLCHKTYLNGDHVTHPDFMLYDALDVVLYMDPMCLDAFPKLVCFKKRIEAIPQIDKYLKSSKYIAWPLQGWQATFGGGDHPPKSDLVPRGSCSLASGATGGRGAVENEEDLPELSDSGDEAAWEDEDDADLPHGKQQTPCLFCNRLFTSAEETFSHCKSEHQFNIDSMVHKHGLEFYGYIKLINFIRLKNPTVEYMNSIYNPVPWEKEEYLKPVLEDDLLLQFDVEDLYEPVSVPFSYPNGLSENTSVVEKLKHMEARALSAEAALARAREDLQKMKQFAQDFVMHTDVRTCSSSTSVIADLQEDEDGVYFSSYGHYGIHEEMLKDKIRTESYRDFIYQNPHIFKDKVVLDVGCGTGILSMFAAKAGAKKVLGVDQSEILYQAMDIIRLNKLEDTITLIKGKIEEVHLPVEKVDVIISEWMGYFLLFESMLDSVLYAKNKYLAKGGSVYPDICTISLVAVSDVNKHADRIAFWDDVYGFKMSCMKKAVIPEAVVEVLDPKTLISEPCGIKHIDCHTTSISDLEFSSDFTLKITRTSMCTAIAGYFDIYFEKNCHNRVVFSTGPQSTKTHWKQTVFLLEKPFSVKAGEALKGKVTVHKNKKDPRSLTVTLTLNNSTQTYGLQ
- Protocol notes: PRMT3 Biochemical Assay (3H-SAM Flashplate, peptide substrate)
pIC50: −log10 of the molar value.
Recorded endpoint: pIC50

Sample records with pIC50:
CN(CCN)Cc1c[nH]nc1C1CC1 : < 5.00
CN(CCN)Cc1c[nH]nc1C1=CCOCC1 : < 5.00
CN(CCN)Cc1c[nH]nc1/C=C/Cc1ccccc1 : < 5.00

Memo: `CC(C)c1n[nH]cc1CN(C)CCN` , reported pIC50: < 5.00

Memo: `CNCCN(C)Cc1c[nH]nc1C#Cc1ccc(F)cc1` , reported pIC50: < 5.00

Memo: `CN(CCN)Cc1c[nH]nc1CCc1ccccc1` , reported pIC50: 5.00 to 5.52

###

Attribute: IC50
- Study system: full-length human PRMT8 isoform 1 (Homo sapiens)
- Protocol notes: PRMT8 Biochemical Assay (3H-SAM Flashplate, peptide substrate)
- Condition info: read-out: Biochemical IC50 PRMT8

CNCCN(C)Cc1c[nH]nc1C1CCC2(CC1)C(=O)NC(=O)N2C (stereo not shown) [Compound 161] : < 0.1 µM
CNCCN(C)Cc1c[nH]nc1C1CC(COC)C(C)(C)C(COC)C1 (stereo not shown) [Compound 86] : 3.01 to 10 µM
CNCCN(C)Cc1c[nH]nc1[C@H]1CC[C@@H](O)C2(CCCCC2)C1 (single isomer, unassigned) [Compound 183] : < 0.1 µM

Continue with the next compound.
Memo: CNCCN(C)Cc1c[nH]nc1C1CC(OC(C)C)CC(OC(C)C)C1 (stereo not shown) [Compound 118] , reported IC50: > 10 µM

###

- Study system: full-length human PRMT1 isoform 1 (GST-tagged) (Homo sapiens, UniProt Q99873)
- Sequence (Q99873 with tags, fused parts or gaps): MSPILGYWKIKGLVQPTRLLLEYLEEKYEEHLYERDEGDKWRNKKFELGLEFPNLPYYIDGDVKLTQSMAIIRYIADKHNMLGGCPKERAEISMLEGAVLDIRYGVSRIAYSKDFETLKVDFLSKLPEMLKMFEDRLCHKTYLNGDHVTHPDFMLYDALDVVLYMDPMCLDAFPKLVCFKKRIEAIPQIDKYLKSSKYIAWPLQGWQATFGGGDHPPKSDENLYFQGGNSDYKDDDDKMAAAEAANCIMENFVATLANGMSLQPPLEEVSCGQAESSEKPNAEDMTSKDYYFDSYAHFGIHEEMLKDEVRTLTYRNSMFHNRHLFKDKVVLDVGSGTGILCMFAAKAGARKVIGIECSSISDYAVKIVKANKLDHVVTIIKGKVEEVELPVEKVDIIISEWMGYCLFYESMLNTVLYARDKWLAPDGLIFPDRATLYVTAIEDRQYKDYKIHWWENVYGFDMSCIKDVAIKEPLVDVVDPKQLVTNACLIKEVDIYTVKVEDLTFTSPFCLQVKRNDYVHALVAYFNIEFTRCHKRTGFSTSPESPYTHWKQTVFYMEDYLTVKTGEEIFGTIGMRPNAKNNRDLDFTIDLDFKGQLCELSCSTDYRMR
- Protocol notes: PRMT1 Biochemical Assay (3H-SAM Flashplate, peptide substrate)
- Condition info: single experiment or average of multiple experiments
Attribute: IC50
Could you give me the number in nM? Just the number is fine.

CNCCN(C)Cc1c[nH]nc1C#Cc1cccc(OC)c1 : 10
CNCCN(C)Cc1c[nH]nc1C1CCN(C(=O)C(C)C)CC1 : 20
COc1cccc(/C=C/c2n[nH]cc2CN(C)CCN)c1 : 10
CNCCN(C)Cc1c[nH]nc1[C@H]1CC[C@H](N(CCC(C)C)C(=O)CCCOC)CC1 : 29.6

Continue with the next compound.
Let me check: `CNCCN(C)Cc1c[nH]nc1C1CCC(CCOC)(CCOC)CC1` , system full-length human PRMT1 isoform 1 (GST-tagged) (Homo sapiens, UniProt Q99873), measured IC50 is 15.5
